Attribution: patent US20230012273A1

# test.target: T1, human SIRPαV1 extracellular domain + His-tag (NP_542970.1) (human, UniProt P78324 31-373)
# T1 construct: also called hSIRPαV1; HuSIRPαV1
# T1 sequence (P78324 other isoform, or with tags, fused parts or gaps): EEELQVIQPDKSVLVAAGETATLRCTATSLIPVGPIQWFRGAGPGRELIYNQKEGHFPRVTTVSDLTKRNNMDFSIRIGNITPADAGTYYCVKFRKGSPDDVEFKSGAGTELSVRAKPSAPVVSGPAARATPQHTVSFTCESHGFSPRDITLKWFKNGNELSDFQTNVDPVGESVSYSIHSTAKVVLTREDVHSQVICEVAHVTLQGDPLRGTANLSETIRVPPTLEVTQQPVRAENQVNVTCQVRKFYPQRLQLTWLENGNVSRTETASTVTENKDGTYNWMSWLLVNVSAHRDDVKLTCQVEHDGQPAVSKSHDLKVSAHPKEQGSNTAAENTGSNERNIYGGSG
# measurement.protocol: SPR, Ab captured, ECD-His analyte
metric: Kd (nM)
Note: unit nM is implicit; provide only the numeric part.

Here are 2 binders together with their reported answers.
* Antibody E9 (antibody, human IgG1, kappa, L234A L235A, V domains shown) VH: QVQLQESGPGLVRPSETLSLTCTVSGGSIRNYYWSWIRQPPGKGLEWIGFIYYNGRTFYNPSLKSRVTISLDMSINQFSLKMTSVTAADTAVYYCARVRAYSGIGLDGTDVWGQGTTVTVSS VL: DIVMTQSPLSLPVTPGEPASISCKSSQSLLYSNAYNYLDWYLQRPGQSPQLLIYLGSNRASGVPDRFSGSGSGTDFTLKISRVEAEDVGVYYCMQALQTPLTFGGGTKVEIKR | 1.22
* Antibody E16 (antibody, human IgG1, kappa, L234A L235A, V domains shown) VH: QVQLQESGPGLVRPSETLSLTCTVSGGSIRNYYWSWIRQPPGKGLEWIGFIYYNGRTFYNPSLKSRVTISLDTSKNQFSLKMTSVTAADTAVYYCARVRAYSGIGLDGTDVWGQGTTVTVSS VL: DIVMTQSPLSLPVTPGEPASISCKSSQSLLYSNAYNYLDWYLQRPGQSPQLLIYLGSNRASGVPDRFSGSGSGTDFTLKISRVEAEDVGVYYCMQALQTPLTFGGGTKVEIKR | 2.15

The binder identified as Antibody E14 (antibody, human IgG1, kappa, L234A L235A, V domains shown) VH: QVQLQESGPGLVRPSETLSLTCTVSGGSIRNYYWSWIRQPPGKGLEWIGFIYYNGRTFYNPSLKSRVTISLDKSKNQFSLKMTSVTAADTAVYYCARVRAYSGIGLDGTDVWGQGTTVTVSS VL: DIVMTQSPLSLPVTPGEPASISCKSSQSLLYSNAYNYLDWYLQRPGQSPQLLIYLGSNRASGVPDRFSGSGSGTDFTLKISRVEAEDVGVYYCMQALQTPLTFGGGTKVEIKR registered its Kd at 1.84
